The reported measurements were obtained from patent US20240376084A1.

# tested.system: hemolysin alpha from Staphylococcus aureus (Staphylococcus aureus, UniProt P09616)
# Sequence (P09616 27-319 limits assumed): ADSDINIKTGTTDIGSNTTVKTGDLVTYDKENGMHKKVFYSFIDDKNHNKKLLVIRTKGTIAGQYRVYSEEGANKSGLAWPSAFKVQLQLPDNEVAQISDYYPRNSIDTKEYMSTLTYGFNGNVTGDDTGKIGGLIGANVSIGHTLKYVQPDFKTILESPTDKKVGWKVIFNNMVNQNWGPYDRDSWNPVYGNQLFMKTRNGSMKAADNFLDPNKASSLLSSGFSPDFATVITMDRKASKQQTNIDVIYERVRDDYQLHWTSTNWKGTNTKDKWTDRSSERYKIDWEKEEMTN
pIC50: −log10 of the molar value.
endpoint.name: pIC50

Sample answers from the record:
Cc1cc2[nH]c(=O)c(=O)[nH]c2cc1S(=O)(=O)Nc1ccc(-c2ccccc2N(C)C)cc1 | 6.00 to 7.00
Cc1cc2[nH]c(=O)c(=O)[nH]c2cc1S(=O)(=O)Nc1ccc(-c2ccc(Cl)cc2)c(Cl)c1 | > 7.52
O=c1[nH]c2cc(F)c(S(=O)(=O)Nc3ccc4ccccc4c3)cc2[nH]c1=O | 6.00 to 7.00

Each compound below has a recorded value; state its pIC50.
1. Cc1ccc(-c2ccc(NS(=O)(=O)c3cc4[nH]c(=O)c(=O)[nH]c4cc3C)cc2)c(C)c1
2. COc1cc(NS(=O)(=O)c2cc3[nH]c(=O)c(=O)[nH]c3cc2C)ccc1-c1ccccc1C
3. Cc1cc2[nH]c(=O)c(=O)[nH]c2cc1S(=O)(=O)Nc1ccc(-c2ccncc2)cc1

OUT:
1: 6.00 to 7.00; 2: 6.00 to 7.00; 3: 6.00 to 7.00

Answer for every listed entry: what is its pIC50? The entries follow.
1. Cc1cc2[nH]c(=O)c(=O)[nH]c2cc1S(=O)(=O)Nc1ccc(-c2ccccc2Cl)cc1
2. Cc1cc(NS(=O)(=O)c2cc3[nH]c(=O)c(=O)[nH]c3cc2F)cc(C)c1-c1ccncc1
3. COc1ccccc1-c1ccc(NS(=O)(=O)c2cc3[nH]c(=O)c(=O)[nH]c3cc2C)cc1
4. O=c1[nH]c2cc(F)c(S(=O)(=O)Nc3ccc(C4CCCCC4)cc3)cc2[nH]c1=O
5. Cc1cc2[nH]c(=O)c(=O)[nH]c2cc1S(=O)(=O)Nc1ccc(Br)cc1
6. Cc1ccc(-c2ccc(NS(=O)(=O)c3cc4[nH]c(=O)c(=O)[nH]c4cc3Cl)cc2Cl)o1
7. Cc1cc2[nH]c(=O)c(=O)[nH]c2cc1S(=O)(=O)Nc1cc(C)c(-c2cccc(Cl)c2)c(C)c1

OUT:
["6.00 to 7.00", "5.46 to 6.00", "6.00 to 7.00", "6.00 to 7.00", "6.00 to 7.00", "6.00 to 7.00", "7.00 to 7.52"]

Would you mind giving pIC50 for every compound in the list below?
1. O=c1[nH]c2cc(Cl)c(S(=O)(=O)Nc3ccc(-c4ccc(F)cc4)c(Cl)c3)cc2[nH]c1=O
2. O=c1[nH]c2cc(Cl)c(S(=O)(=O)Nc3ccc(-c4cccc(N5CCCC5)c4)c(Cl)c3)cc2[nH]c1=O
3. Cc1cc2[nH]c(=O)c(=O)[nH]c2cc1S(=O)(=O)Nc1ccc(OC(F)(F)F)cc1

OUT:
["> 7.52", "> 7.52", "> 7.52"]
